Sourced from paper PMC10638516

- ASSAY PROTOCOL: Pharmacokinetics study in ICR mice
- Type: in vivo, mouse
- CONDITIONS: ICR, mouse, plasma, iv, 3 mg/kg

COMPOUND	MEASUREMENT UNITS	Vd
CCn1c2ccccc2c2cc(CNCCCCNC(=O)c3ccc(-c4cccnc4)cc3)ccc21 [23j]	L/kg	4.44

###

- ASSAY PROTOCOL: Pharmacokinetics study in ICR mice
- Type: in vivo, mouse
- CONDITIONS: ICR, mouse, plasma, po, 10 mg/kg
READOUT TYPE: Cmax (ng/mL)

MOLECULE	QUANTITATIVE READOUT
CCn1c2ccccc2c2cc(CNCCCCNC(=O)c3ccc(-c4cccnc4)cc3)ccc21 [23j]	78.8

###

- SYSTEM UNDER TEST: hD3R (Homo sapiens)
- Sequence (P35462 whole entry): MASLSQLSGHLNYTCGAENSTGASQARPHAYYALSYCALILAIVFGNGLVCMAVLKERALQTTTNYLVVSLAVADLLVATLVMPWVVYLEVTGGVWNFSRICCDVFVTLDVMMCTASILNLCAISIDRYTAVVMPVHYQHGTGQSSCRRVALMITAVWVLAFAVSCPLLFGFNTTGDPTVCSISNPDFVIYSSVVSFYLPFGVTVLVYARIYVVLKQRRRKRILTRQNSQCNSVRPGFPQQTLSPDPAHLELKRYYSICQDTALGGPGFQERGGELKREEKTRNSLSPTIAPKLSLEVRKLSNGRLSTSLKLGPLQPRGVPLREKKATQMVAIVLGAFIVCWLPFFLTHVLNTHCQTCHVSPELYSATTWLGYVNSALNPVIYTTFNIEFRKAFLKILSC
- ASSAY PROTOCOL: biochemical
- Type: binding
- CONDITIONS: read-out: % inhibition at 10 μmol/L hD3, 10 μmol/L test compound
# if value of inhibition at 10 µM reaches 90%, tag fulfilled; if it stays below, tag not fulfilled

MOLECULE	CLASSIFICATION
CCn1c2c(c3ccccc31)CCN(CCCCNC(=O)c1ccc3[nH]c(=O)[nH]c3c1)C2 [42j]	not fulfilled
Cn1c2c(c3ccccc31)CN(CCCCNC(=O)c1ccc(-c3ccccc3)cc1)CC2 [36f]	fulfilled
CC(C)n1c2ccccc2c2cc(CNCCCn3ccnc3)ccc21	not fulfilled
CCn1c2ccccc2c2cc(CNCCCNC(=O)c3nc4ccccc4[nH]3)ccc21 [22c]	not fulfilled
CCCN(CCCCNC(=O)c1ccc(-c2cccnc2)cc1)Cc1ccc2c(c1)c1ccccc1n2CC [31d]	not fulfilled
Cn1c2c(c3ccccc31)CN(CCCCNC(=O)c1cnc3ccccc3c1)CC2 [36d]	not fulfilled
Cn1c2c(c3ccccc31)CN(CCCCNC(=O)c1ccnc3ccccc13)CC2 [36e]	not fulfilled
Cn1c2c(c3ccccc31)CN(CCCCNC(=O)c1ccc3[nH]cnc3c1)CC2 [36j]	not fulfilled
CCn1c2ccccc2c2cc(CNCCCCNC(=O)c3cnc4ccccc4c3)ccc21 [23l]	fulfilled

###

- ASSAY PROTOCOL: Pharmacokinetics study in ICR mice
- Format: in vivo, mouse
- CONDITIONS: ICR, mouse, plasma, iv, 3 mg/kg, t1/2, ICR mice, 3 mg/kg i.v., single dose
READOUT TYPE: half-life (min)

COMPOUND	READOUT TYPE	QUANTITATIVE READOUT
CCn1c2ccccc2c2cc(CNCCCCNC(=O)c3ccc(-c4cccnc4)cc3)ccc21 [23j]	half-life	31.8

###

- SYSTEM UNDER TEST: hD3R (Homo sapiens)
- ASSAY PROTOCOL: ERK1/2 phosphorylation
- Type: cell-based
- CONDITIONS: CHO-hD3R cells; quinpirole at 20 μmol/L
READOUT TYPE: effect on ERK1/2 phosphorylation mediated by hD3R, compound alone (agonist mode)

COMPOUND	RESULT
Cn1c2c(c3ccccc31)CN(CCCCNC(=O)c1ccc(-c3ccccc3)cc1)CC2 [36f]	no influence
CCn1c2ccccc2c2cc(CNCCCCNC(=O)c3ccc(-c4cccnc4)cc3)ccc21 [23j]	no influence
Cn1c2c(c3ccccc31)CN(CCCCNC(=O)c1cc3ccccc3[nH]1)CC2 [36a]	no influence

###

- SYSTEM UNDER TEST: h5-HT1B (Homo sapiens)
- Sequence (P28222 whole entry): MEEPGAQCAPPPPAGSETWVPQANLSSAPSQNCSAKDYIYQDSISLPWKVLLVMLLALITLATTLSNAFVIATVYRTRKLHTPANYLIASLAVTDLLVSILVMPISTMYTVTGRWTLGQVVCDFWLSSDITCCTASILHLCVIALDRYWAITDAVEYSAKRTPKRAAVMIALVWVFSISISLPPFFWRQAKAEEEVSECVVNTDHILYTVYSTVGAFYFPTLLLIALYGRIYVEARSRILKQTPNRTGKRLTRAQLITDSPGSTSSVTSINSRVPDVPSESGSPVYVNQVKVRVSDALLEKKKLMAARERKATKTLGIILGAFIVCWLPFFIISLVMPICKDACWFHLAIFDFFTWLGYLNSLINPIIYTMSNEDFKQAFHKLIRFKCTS
pKi: −log10 of the molar value.

COMPOUND	pKi
CCn1c2ccccc2c2cc(CNCCCCNC(=O)c3ccc(-c4cccnc4)cc3)ccc21 [23j]	6.76
